Test system: KALS-1 (Glioblastoma);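 also: after 72 h of two-drug dosing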
Experiment: Bliss excess, mean over the matrix (fraction); higher = more synergy
Could you label it Condition met if measured Bliss excess is -0.04 or higher, and Condition not met otherwise?

Study these solved cases before continuing.
[
  {
    "Compound": "CC1(C)CCC(CN2CCN(c3ccc(C(=O)NS(=O)(=O)c4ccc(NCC5CCOCC5)c([N+](=O)[O-])c4)c(Oc4cnc5[nH]ccc5c4)c3)CC2)=C(c2ccc(Cl)cc2)C1 [Venetoclax] + C[C@@H](Nc1cc(F)cc(F)c1)c1cc(C(=O)N(C)C)cc2c(=O)cc(N3CCOCC3)oc12 [AZD8186] (first compound max 1 µM, 7x7, partner max 3 µM)",
    "Class name": "Condition met"
  },
  {
    "Compound": "O=C(c1cc(Cc2n[nH]c(=O)c3ccccc23)ccc1F)N1CCN(C(=O)C2CC2)CC1 [Olaparib] + COc1nnc2ccc(N3CCC(c4ccc(OCCN5CCN(C)C(=O)[C@H]5C)cc4)CC3)nn12 [AZD5153] (first compound max 10 µM, 7x7, partner max 1 µM)",
    "Class name": "Condition met"
  },
  {
    "Compound": "Cn1cnc2c(F)c(Nc3ccc(Br)cc3Cl)c(C(=O)NOCCO)cc21 [Selumetinib] + C[C@@H]1COCCN1C2=NC(=NC(=C2)C3(CC3)[S@](=N)(=O)C)C4=C5C=CNC5=NC=C4 [AZD6738] (first compound max 10 µM, 7x7, partner max 10 µM)",
    "Class name": "Condition not met"
  },
  {
    "Compound": "NC1(C(=O)N[C@@H](CCO)c2ccc(Cl)cc2)CCN(c2ncnc3[nH]ccc23)CC1 [Capivasertib] + CC(C)n1c(=O)n(C)c2cnc3cc(F)c(-c4ccc(OCCCN5CCCCC5)nc4)cc3c21 [AZD1390] (first compound max 10 µM, 7x7, partner max 0.3 µM)",
    "Class name": "Condition not met"
  },
  {
    "Compound": "Cc1c2c(nn1C)CSCc1cc(n(C)n1)CSc1cc(c3ccccc3c1)OCCCc1c(C(=O)O)n(C)c3c-2c(Cl)ccc13 [AZD5991] + C[C@@H]1COCCN1C2=NC(=NC(=C2)C3(CC3)[S@](=N)(=O)C)C4=C5C=CNC5=NC=C4 [AZD6738] (first compound max 1 µM, 7x7, partner max 10 µM)",
    "Class name": "Condition met"
  }
]

Next up:
Could you tell me if the measured Bliss excess of Cc1cc2ncnn2cc1Nc1ncc2c(n1)n(C1CCOCC1)c(=O)n2C [AZD7648] + CCN(CCO)CCCOc1ccc2c(Nc3cc(CC(=O)Nc4cccc(F)c4)[nH]n3)ncnc2c1 [AZD2811] (first compound max 10 µM, 7x7, partner max 1 µM) reaches -0.04 or more?
Condition met
